TGT: T1, chemokine receptor 5 (CCR5; AC P51681) (human, UniProt P51681 1-352)
T1 construct: whole, on cells
PROTOCOL_TEXT: radioligand competition, 0.1 nM 125I-MIP 1-alpha tracer, crude membranes of CHO-K1 cells expressing CCR5
QUANTITY: pIC50
To interpret pIC50, take it as minus log10 of a concentration measured in moles per litre.

Lab book: pIC50 of processed human chemokine PHC-1 (ligand, Purified from human hemofiltrate or made by tryptic digestion of HCC-1 (1-74); also called HCC-1[9-74]; HCC-1, residues 9-74) GPYHPSECCFTYTTYKIPRQRIMDYYETNSQCSKPGIVFITKRGHSVCTNPSDKWVQDYIKDMKEN noted as 10.40
